Kindly state inhibition at 2 µM for each of the entries shown.
- Tested on: P. falciparum male gametocytes
- Test name: P. falciparum Dual Gamete Formation Assay (PfDGFA), male readout (exflagellation)
- Format: cell-based, Plasmodium falciparum NF54
- Protocol conditions: Plasmodium falciparum; 2µM, 24h preincubation with gametocytes; replicate R1; read-out: % inhibition male (individual replicates) R1
Numbers only, in %.

Some solved cases for reference:
>>> numeric_result("CC(C)(C)c1ccc(-c2nc3c(ccc4nc(N)nc(N)c43)[nH]2)cc1.Cl")
99.9
>>> numeric_result("Cc1ccc(S(=O)(=O)N(CCCNCc2cccc(O)c2)c2ccccc2)cc1")
102
>>> numeric_result("N=C(N)NCCN(Cc1ccccc1)c1ccc(Cl)cc1")
96.5
>>> numeric_result("Br.c1cc(Nc2nc(-c3ccc(-c4csc(Nc5ccncc5)n4)cc3)cs2)ccn1")
101

With those in mind, consider the next molecule.
Requested read-out: inhibition at 2 µM. Entry: "C=CCNc1cc(-c2ccccn2)nc(-c2ccccn2)n1"
93.1
